# reported LDH; entries follow
- Species on record: Rattus norvegicus
- assay.procedure: Open TG-GATES - Regimen: Single
- Type: toxicity, organism-based, Sprague-Dawley
- Design: regimen Single, gender Male, age 6 weeks
- assay.context: in vivo, po, 0 mg/kg, 6 h, tissue Plasma, route gavage, dose level Control
Express your answer in IU/L, writing the number without its unit.

O=NN(CCCl)C(=O)NC1CCCCC1 [LOMUSTINE]; 116.4
ClC(Cl)(Cl)Cl [CARBON TETRACHLORIDE]; 189.2
OCCOCCN1CCN(C(c2ccccc2)c2ccc(Cl)cc2)CC1 (centres undefined) [HYDROXYZINE]; 56.2

Next item in the queue.
Query: For CCC1(c2ccccc2)C(=O)NC(=O)NC1=O [PHENOBARBITAL] , what is its reported LDH?
Response: 167.6

###

- Species: Rattus norvegicus
- assay.procedure: Open TG-GATES - Regimen: Single
- Assay type: toxicity, organism-based, Sprague-Dawley
- Set-up: regimen Single, gender Male, age 6 weeks
- assay.context: in vivo, po, 0 mg/kg, 24 h, tissue Plasma, route gavage, dose level Control
measured.metric: BUN (mg/dL)
Express your answer in mg/dL, writing the number without its unit.

Reference set, count: 4
CCC1(c2ccccc2)C(=O)NC(=O)NC1=O; 16.2
O=NN(CCCl)C(=O)NC1CCCCC1; 19.2
CN(C)C(=N)N=C(N)N; 16
CC[C@H]1[C@@H]2C[C@H]3[C@@H]4N(C)c5ccccc5[C@]45C[C@@H]([C@@H]2[C@H]5O)N3[C@@H]1O; 16.8

Query: For CC(C)N(CCC(C(N)=O)(c1ccccc1)c1ccccn1)C(C)C (stereo not given) [DISOPYRAMIDE] , what is its reported BUN?
Response: 17

###

- Species: Rattus norvegicus
- assay.procedure: Open TG-GATES - Regimen: Daily Repeat
- Format: toxicity, organism-based, Sprague-Dawley
- Design: regimen Daily Repeat, gender Male, age 6 weeks
- assay.context: in vivo, po, 0 mg/kg, […], tissue Blood, route gavage, dose level Control, time 28 day
measured.metric: Lym (%)
Express your answer in %, writing the number without its unit.

Query: For CC(C)N(CCC(C(N)=O)(c1ccccc1)c1ccccn1)C(C)C (stereo not drawn) [DISOPYRAMIDE] , what is its reported Lym?
Response: 80

Query: For CN(C)CCC=C1c2ccccc2COc2ccccc21 [DOXEPIN] , what is its reported Lym?
Response: 74.6

Query: For O=NN(CCCl)C(=O)NC1CCCCC1 [LOMUSTINE] , what is its reported Lym?
Response: 82.8

###

- Species on record: Rattus norvegicus
- assay.procedure: Open TG-GATES - Regimen: Single
- Format: toxicity, organism-based, Sprague-Dawley
- Design: regimen Single, gender Male, age 6 weeks
- assay.context: in vivo, po, 0 mg/kg, 9 h, tissue Blood, route gavage, dose level Control
# reported Mono; entries follow

Reference set, count: 2
CC(C)N(CCC(C(N)=O)(c1ccccc1)c1ccccn1)C(C)C (stereo not drawn) [DISOPYRAMIDE]; 2.6%
O=NN(CCCl)C(=O)NC1CCCCC1; 6.2%

Next item in the queue.
Query: For CN(C)C(=N)N=C(N)N , what is its reported Mono?
Response: 3.2%

###

# reported Ht; entries follow
- Organism: Rattus norvegicus
- assay.procedure: Open TG-GATES - Regimen: Daily Repeat
- Type: toxicity, organism-based, Sprague-Dawley
- Parameters: regimen Daily Repeat, gender Male, age 6 weeks
- assay.context: in vivo, po, 0 mg/kg, 72 h, tissue Blood, route gavage, dose level Control, time 3 day
Express your answer in %, writing the number without its unit.

Reference set, count: 3
CCCCc1oc2ccccc2c1C(=O)c1cc(I)c(OCCN(CC)CC)c(I)c1; 39.6
ClC(Cl)(Cl)Cl [CARBON TETRACHLORIDE]; 40.1
OCCOCCN1CCN(C(c2ccccc2)c2ccc(Cl)cc2)CC1 (configuration not stated) [HYDROXYZINE]; 39

Query: For CCC1(c2ccccc2)C(=O)NC(=O)NC1=O , what is its reported Ht?
Response: 39.4

Query: For O=NN(CCCl)C(=O)NC1CCCCC1 , what is its reported Ht?
Response: 40.6

Query: For CC[C@H]1[C@@H]2C[C@H]3[C@@H]4N(C)c5ccccc5[C@]45C[C@@H]([C@@H]2[C@H]5O)N3[C@@H]1O , what is its reported Ht?
Response: 40.1

Query: For CC(C)N(CCC(C(N)=O)(c1ccccc1)c1ccccn1)C(C)C (configuration not stated) [DISOPYRAMIDE] , what is its reported Ht?
Response: 39.9
